- Experiment description: Solubility in simulated intestinal fluids (FaSSIF/FeSSIF)
- Settings: fasted state simulated intestinal fluid (FaSSIF), 25 °C, fassif, thermodynamic from solid
Assay endpoint: solubility (µg/mL)

Task item: So what's the measured solubility for this one? CC(C)(C#Cc1ccc(-c2ccc(Cl)c3c(N(C(=O)NC(C(=O)O)C(=O)O)S(C)(=O)=O)nn(CC(F)(F)F)c23)c([C@H](Cc2cc(F)cc(F)c2)NC(=O)Cn2nc(C(F)(F)F)c3c2C(F)(F)[C@@H]2C[C@H]32)n1)S(C)(=O)=O [Compound 53]
Reply: 758

Task item: Would you kindly share the measured solubility for CC(C)(C#Cc1ccc(-c2ccc(Cl)c3c(N(C(=O)OCOP(=O)(O)O)S(C)(=O)=O)nn(CC(F)(F)F)c23)c([C@H](Cc2cc(F)cc(F)c2)NC(=O)Cn2nc(C(F)(F)F)c3c2C(F)(F)[C@@H]2C[C@H]32)n1)S(C)(=O)=O [Compound 90] ?
Reply: 2

Task item: Give its solubility value. Item: CN(CCN(CCC(=O)O)C(=O)OCOP(=O)(O)O)C(=O)N(c1nn(CC(F)(F)F)c2c(-c3ccc(C#CC(C)(C)S(C)(=O)=O)nc3[C@H](Cc3cc(F)cc(F)c3)NC(=O)Cn3nc(C(F)(F)F)c4c3C(F)(F)[C@@H]3C[C@H]43)ccc(Cl)c12)S(C)(=O)=O [Compound 86]
Reply: 2020

Task item: Request the reported solubility associated with CC(C)(C#Cc1ccc(-c2ccc(Cl)c3c(N(C(=O)N[C@@H](COP(=O)(O)O)C(=O)O)S(C)(=O)=O)nn(CC(F)(F)F)c23)c([C@H](Cc2cc(F)cc(F)c2)NC(=O)Cn2nc(C(F)(F)F)c3c2C(F)(F)[C@@H]2C[C@H]32)n1)S(C)(=O)=O [Compound 59]
Reply: 798

(1) C[C@@H](N)C(=O)OCN(c1nn(CC(F)(F)F)c2c(-c3ccc(C#CC(C)(C)S(C)(=O)=O)nc3[C@H](Cc3cc(F)cc(F)c3)NC(=O)Cn3nc(C(F)(F)F)c4c3C(F)(F)[C@@H]3C[C@H]43)ccc(Cl)c12)S(C)(=O)=O [Compound 26]
(2) CC(C)(C#Cc1ccc(-c2ccc(Cl)c3c(N(C(=O)N[C@@H](CCC(=O)O)C(=O)O)S(C)(=O)=O)nn(CC(F)(F)F)c23)c([C@H](Cc2cc(F)cc(F)c2)NC(=O)Cn2nc(C(F)(F)F)c3c2C(F)(F)[C@@H]2C[C@H]32)n1)S(C)(=O)=O [Compound 68]
(3) CC(C)(C#Cc1ccc(-c2ccc(Cl)c3c(N(C(=O)OCCCC(=O)O)S(C)(=O)=O)nn(CC(F)(F)F)c23)c([C@H](Cc2cc(F)cc(F)c2)NC(=O)Cn2nc(C(F)(F)F)c3c2C(F)(F)[C@@H]2C[C@H]32)n1)S(C)(=O)=O [Compound 113]
(4) CC(C)(C#Cc1ccc(-c2ccc(Cl)c3c(N(C(=O)N[C@@H](CC(=O)O)C(=O)O)S(C)(=O)=O)nn(CC(F)(F)F)c23)c([C@H](Cc2cc(F)cc(F)c2)NC(=O)Cn2nc(C(F)(F)F)c3c2C(F)(F)[C@@H]2C[C@H]32)n1)S(C)(=O)=O [Compound 69]
Task item: Sort low-to-high on solubility, please. Record the ranking as a list of labels in the requested order.
Reply: 3, 1, 2, 4
(3: 5 µg/mL, 1: 13 µg/mL, 2: 700 µg/mL, 4: 1580 µg/mL)

(1) CN(CC(=O)O)C(=O)N(c1nn(CC(F)(F)F)c2c(-c3ccc(C#CC(C)(C)S(C)(=O)=O)nc3[C@H](Cc3cc(F)cc(F)c3)NC(=O)Cn3nc(C(F)(F)F)c4c3C(F)(F)[C@@H]3C[C@H]43)ccc(Cl)c12)S(C)(=O)=O [Compound 44]
(2) CC(C)(C#Cc1ccc(-c2ccc(Cl)c3c(N(C(=O)OCCCP(=O)(O)O)S(C)(=O)=O)nn(CC(F)(F)F)c23)c([C@H](Cc2cc(F)cc(F)c2)NC(=O)Cn2nc(C(F)(F)F)c3c2C(F)(F)[C@@H]2C[C@H]32)n1)S(C)(=O)=O [Compound 112]
(3) CC(C)(C#Cc1ccc(-c2ccc(Cl)c3c(N(C(=O)NCCNC(=N)N)S(C)(=O)=O)nn(CC(F)(F)F)c23)c([C@H](Cc2cc(F)cc(F)c2)NC(=O)Cn2nc(C(F)(F)F)c3c2C(F)(F)[C@@H]2C[C@H]32)n1)S(C)(=O)=O [Compound 76]
Task item: Rank entries according to their solubility, from the largest number down. # respond with the labels, arranged in the requested order
Reply: 2, 1, 3
(2: 778 µg/mL, 1: 10 µg/mL, 3: 7 µg/mL)

(a) CN(CCC(=O)O)C(=O)N(c1nn(CC(F)(F)F)c2c(-c3ccc(C#CC(C)(C)S(C)(=O)=O)nc3[C@H](Cc3cc(F)cc(F)c3)NC(=O)Cn3nc(C(F)(F)F)c4c3C(F)(F)[C@@H]3C[C@H]43)ccc(Cl)c12)S(C)(=O)=O [Compound 45]
(b) CC(C)(C#Cc1ccc(-c2ccc(Cl)c3c(N(C(=O)N(CCNC(=O)OCOP(=O)(O)O)CCC(=O)O)S(C)(=O)=O)nn(CC(F)(F)F)c23)c([C@H](Cc2cc(F)cc(F)c2)NC(=O)Cn2nc(C(F)(F)F)c3c2C(F)(F)[C@@H]2C[C@H]32)n1)S(C)(=O)=O [Compound 80]
Task item: I'm curious whether a or b has the smaller solubility number. Which is it? API: response body contains the label of the selected item.
Reply: a
